Can you tell me growth for the items I'm about to list?
Test system: NCI-H460 lung
Experiment: NCI-60 one-dose screen, 48 h (100 = growth as untreated, 0 = no growth, -100 = all killed)
Conditions: 10 µM
The panel holds about 83,000 compounds, 20% with a hit somewhere; the sample as a whole holds those more often. Active and inactive are the calls of the source. How the source made its calls: active means growth percent below 10; inactive means the rest.

CCOC(=O)CCCC(=O)OCC; 105% (inactive)

State the recorded growth for every item in the following list.
1. Cc1ccc(/C=C2\SC(=S)N(c3ccc(F)cc3)C2=O)o1
2. O=[N+]([O-])c1ccc(S(=O)(=O)NN=C2CCCCC2)cc1
3. CCCCC(=O)c1ccc(OC)cc1
4. CCN(CC)C(=O)/C=C(/C)c1ccccc1
5. COc1cc(C(N)=O)cc(OC)c1OC

Output:
33.7% (inactive)
121% (inactive)
104% (inactive)
104% (inactive)
111% (inactive)

State the recorded growth for every item in the following list.
1. Oc1ccccc1O
2. CCOc1ccccc1/C=N/Nc1nc2ccccc2o1
3. C[N+](C)(C)C(=O)c1ccccc1
4. COc1ccc(-c2cc(-c3cc(-c4ccc(OC)cc4)nc(N)n3)nc(N)n2)cc1
5. O=C1C[C@H](c2ccccc2)[C@H](c2ccccc2)C1

Output:
100% (inactive)
102% (inactive)
119% (inactive)
99.5% (inactive)
112% (inactive)

The measurements presented in this section are drawn from PubChem BioAssay (NCI).
